Values from the Human Domainome abundance scans (Beltran et al. 2025)

B1: Mineralocorticoid receptor, residues 600 to 675; numbered along this chain, P08235 (parent)
chain: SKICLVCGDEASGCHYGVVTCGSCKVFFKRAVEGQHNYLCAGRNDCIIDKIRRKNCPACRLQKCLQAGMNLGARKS

Variants of: B1
Test: abundance fitness (aPCA) (normalised: wild type 0, dead -1); higher = more abundant; growth selection in yeast, the domain comes from the species named
Conditions: Homo sapiens
RESULT TYPE: abundance fitness

# annotated cases, reported abundance fitness shown
SKPCLVCGDEASGCHYGVVTCGSCKVFFKRAVEGQHNYLCAGRNDCIIDKIRRKNCPACRLQKCLQAGMNLGARKS = -0.453
SKICLVCGDEASGCHYGVVTCGSCKVFFKRAVEGQHNYLCAGRNDCIIDKIRRKNCPALRLQKCLQAGMNLGARKS = -0.658
SKICLVCGDEASGCHYGVVTCGSCKVFFKRAVEGQHNYLCAGRNDCIIDKIRRKNCPACRLQKCLQMGMNLGARKS = 0.055
SKICLVCGDEASGCNYGVVTCGSCKVFFKRAVEGQHNYLCAGRNDCIIDKIRRKNCPACRLQKCLQAGMNLGARKS = -0.092
SKICLVCGDEASGCHYGVVTCGSCKVFFVRAVEGQHNYLCAGRNDCIIDKIRRKNCPACRLQKCLQAGMNLGARKS = -0.095
SKICLVCGDEASGCHYGVVTCGSCKVFFKRAVEGQHNYLCAGRNDCFIDKIRRKNCPACRLQKCLQAGMNLGARKS = -0.01
SKICLVCGDEASGCHYGVVTCGSCKVFFKRAVEGQHNYLCAGRNDCIIDKIRRKNCPKCRLQKCLQAGMNLGARKS = -0.044
SKICLVCGDEASGCHYGVVTCGSCKVFFKRAVEGQHNYLCAGRNDCIIDKIRRKNCPACRLQKCLQAGMNLGACKS = 0.005
SKICLVCGDEASGCHYGVVTCGSCKVFFKRAVEGQHNYLCAGRNDWIIDKIRRKNCPACRLQKCLQAGMNLGARKS = -0.856
SKICLVCGWEASGCHYGVVTCGSCKVFFKRAVEGQHNYLCAGRNDCIIDKIRRKNCPACRLQKCLQAGMNLGARKS = -0.214

abundance fitness for "SKICLVCGDEASGCHYGVVTCGSCKVFFKRAVEGQCNYLCAGRNDCIIDKIRRKNCPACRLQKCLQAGMNLGARKS" is -0.042

abundance fitness for "SKICLVCGDEASGCHYGVVTCGSCKVFFKRAVEGQHNYLCAGRNDCTIDKIRRKNCPACRLQKCLQAGMNLGARKS" is 0.027

abundance fitness for "SKNCLVCGDEASGCHYGVVTCGSCKVFFKRAVEGQHNYLCAGRNDCIIDKIRRKNCPACRLQKCLQAGMNLGARKS" is -0.022

abundance fitness for "SKICLVCGDEASGCHYGVVTCGSCKVFFKRAVEGQHNYLCAGRNDCIIDKIRRKNCPACRLQKCLQAGMNLGARNS" is -0.092
